# system: RUNX1 (UniProt Q01196)
# Sequence (Q01196 whole entry): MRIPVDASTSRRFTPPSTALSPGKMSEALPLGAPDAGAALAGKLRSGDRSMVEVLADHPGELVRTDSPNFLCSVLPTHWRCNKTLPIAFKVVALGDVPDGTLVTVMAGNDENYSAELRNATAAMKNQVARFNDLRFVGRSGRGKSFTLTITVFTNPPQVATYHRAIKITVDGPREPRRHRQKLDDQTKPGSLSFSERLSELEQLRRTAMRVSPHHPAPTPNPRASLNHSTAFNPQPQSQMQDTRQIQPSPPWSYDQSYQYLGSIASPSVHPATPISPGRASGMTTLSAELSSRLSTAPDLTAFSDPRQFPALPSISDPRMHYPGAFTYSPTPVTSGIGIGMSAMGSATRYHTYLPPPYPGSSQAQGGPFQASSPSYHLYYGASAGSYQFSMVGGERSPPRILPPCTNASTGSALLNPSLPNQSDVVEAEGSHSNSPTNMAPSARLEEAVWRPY
# protocol-notes: RUNX1 binding intensity (PBM fluorescence), RUNX1 alone (arbitrary fluorescence units); higher = stronger binding
# assay-context: RUNX1 concentration 2 nM; ETS1 concentration 0 nM
Over roughly 4,000 sequences, “arbitrary fluorescence units” has its median near 830; the highest 2% begin near 6,500. This excerpt belongs to a sample that is enriched for the highest values.
Below, each entry is listed with its recorded RUNX1 binding intensity.
# output: bare number, no unit

Use the examples below as a reference point.
>>> readout_value("TTGCCGTAACCACTTTATCCACCTCCTTTTTCACGA")
2720
>>> readout_value("TTTGTTGTTCAGGGTGCGAGGCGGCCGCAGCTTCCA")
936
>>> readout_value("CTCTGGCAGGGAGCTCTGAGGGCTAAACCACAAAAA")
1560
>>> readout_value("TCCACAATTCCCAGGAGTCTCTGCGGCCGCGCGGAG")
830

Moving on to the next sequence.
Looking up AGCCGTGGTCAGCAGCAGCACGACTGCCGCCTCCGC , I found its RUNX1 binding intensity recorded as 770

---

# system: RUNX1 (UniProt Q01196)
# protocol-notes: RUNX1 binding intensity (PBM fluorescence), RUNX1 alone (arbitrary fluorescence units); higher = stronger binding
# assay-context: RUNX1 concentration 2 nM; ETS1 concentration 0 nM
The full ranking holds about 4,000 sequences; the median of “arbitrary fluorescence units” is about 830, and the highest 2% start at about 6,500. For the sample, the highest values were picked, then their nearest neighbours and some sequences at random.
experimental-readout: RUNX1 binding intensity
Number only, please.

Some entries whose results are on file:
>>> readout_value("TGCTTCCCTTCAGTGCCGACAGCGAAAACCGCTGCC")
795
>>> readout_value("CCTAAGTAACCACATTCTCGCTTGCTCCTTCCACAC")
3680
>>> readout_value("GACATGTGGCTATTTTGGGCAATTGCCTGAGGAGGC")
720
>>> readout_value("AGTTGCATACGCGGTATTGGGCAGGCAATGGCAGGG")
738
>>> readout_value("CCACACGGCAGGGAGTCGTGTCGTGGTTTACCCCGG")
752

Would you kindly look at the next entry?
For reference, reported RUNX1 binding intensity for ACAGACAGCAGCCTGAGCTCGTGGTTAGAACACCCT stands at 796

---

# system: RUNX1 (UniProt Q01196)
# protocol-notes: RUNX1 binding intensity (PBM fluorescence), RUNX1 alone (arbitrary fluorescence units); higher = stronger binding
# assay-context: RUNX1 concentration 2 nM; ETS1 concentration 0 nM
In all, about 4,000 sequences were measured (“arbitrary fluorescence units”: median about 830, highest 2% from about 6,500 on). The list comes from a sample in which the highest values are over-represented; it also holds close analogues and randomly drawn sequences.
experimental-readout: RUNX1 binding intensity

Study these solved cases before continuing.
>>> readout_value("TGACGGCTGCACGGGCGCAGCGGCGGCCCGCAGGGG")
736
>>> readout_value("CCAGCATGTGGGCTCTGAACCTGAAGCAACAGGCTC")
796
>>> readout_value("GGAGGCTGTGGTGAGGAAAGAGGAGGTGACACTCCT")
883
>>> readout_value("ATCTTGTTCAGGCTCAAAGGGAAACCGCTGCTTTTC")
914
>>> readout_value("TAGGTCTGTGGGTGACGTCTGTTTACTGTGATTGAA")
842
>>> readout_value("GAAACCACAACCTACCCCAGCCTTACTTTCGGGCGC")
3300
>>> readout_value("GGCTTACGGCGGGGTACCCTCCTCTGTGGGCGGGGC")
715
>>> readout_value("AGTGCTGTGGTTTGACTTTGTTTTTACTGTAGCCAG")
1880

According to the records, this sequence ACTTGACTGCCTGTGGGGTGTGTGGTGTCTGCACTT displays RUNX1 binding intensity of 822

The recorded RUNX1 binding intensity for GGTCTGGAGGACGTTTGCAGCTGCTGTGGGTGGTGG is 787

Item: GACAACCTACCACAGCCTTCCTTTCGGGCGCTCAGG | RUNX1 binding intensity: 1040

GET /value?item= CTCGGGATTTGTGGTCCACCCGGCTGAACTCGCGGC &field=RUNX1 binding intensity returns 788

Entry under test: TGGGACCGCTAATCGGAGAGGGTGCGCAAACGCTGG . Its RUNX1 binding intensity was 658

Noted for TAGGGGGGCGCGGTGAGCCCCGGCGGGAATCGAAGC : its RUNX1 binding intensity reads 716

Per the record, GACGCAGCATGAGGTGGAGGTGTAGAATGTGGTGCT has RUNX1 binding intensity of 760

What the record says about CTCTCCAGACCGCGCATTTTGGGTCTCGGAGGAGGT : RUNX1 binding intensity is 735

Entry TTGGCCTCGCCGGGACCCCTTGCACCGCGGACACAG ; RUNX1 binding intensity = 776
